pIC50: −log10 of the molar value.
Please consider the recorded pIC50 for Neuropeptide Y receptor type 5 (Homo sapiens, UniProt Q15761) in what follows.
Readout Type: pIC50

Below: 6 molecules and their reported pIC50.
COc1ccc2c(c1)CC(CNCC1CN(CCNS(=O)(=O)c3cccc4ccccc34)C1)CCC2 (centres undefined) : 7.07
COc1ccc2c(c1)CC(CNC1CCN(CCNS(=O)(=O)c3cccc4ccccc34)CC1)CCC2 (centres undefined) : 7.41
COc1cc2c(cc1OC)CC(NCC1CCN(CCNS(=O)(=O)c3cccc4ccccc34)CC1)CCC2 (centres undefined) : 7.17
COc1ccc2c(c1)CC(NCCN1CCC(CNS(=O)(=O)c3cccc4ccccc34)CC1)CCC2 (centres undefined) : 6.13
COc1ccc2c(c1OC)CC(NCC1CN(CCNS(=O)(=O)c3cccc4ccccc34)C1)CCC2 (centres undefined) : 6.85
Cc1ccc2c(c1)CC(NCC1CCN(CCNS(=O)(=O)c3cccc4ccccc34)CC1)CCC2 (centres undefined) : 7.14

1: COc1ccc2c(c1)CCCC(NCCN1CCC(CNS(=O)(=O)c3cccc4ccccc34)CC1)C2 (centres undefined)
2: O=S(=O)(NCCN1CCC(CNC2CCCc3ccccc3C2)CC1)c1cccc2ccccc12 (centres undefined)
Looking at recorded values for pIC50, does 1 or 2 come in lower? I would appreciate it if you answered with the label of your choice. 1
